system: DU-145 prostate; test: NCI tumour cell line growth inhibition, 48 h; in the data active means GI50 below about 0.43 µM; inactive means the rest
Labels: active, inactive

>  <Compound>
COc1ccc2c(c1)/C(=C\c1c(C)nc3sc(C)cn13)C(=O)N2C

>  <Class assignment>
inactive

$$$$
>  <Compound>
O=C1NCc2ccc3c(-c4cccc(Cl)c4)c[nH]c3c21

>  <Class assignment>
active

$$$$
>  <Compound>
COc1ccc(-c2nn3ncccc3c2-c2ccnc(Nc3ccc(Cl)c(C(F)(F)F)c3)n2)cc1

>  <Class assignment>
inactive

$$$$
>  <Compound>
Cc1ccc(CNc2c3ccccc3nc3ccccc23)cc1

>  <Class assignment>
inactive

$$$$
>  <Compound>
Cc1c2c(nn1-c1ccc(S(=O)(=O)NC(=S)Nc3ccccc3)cc1)-c1ccccc1CC2

>  <Class assignment>
inactive

$$$$
>  <Compound>
COc1ccc(Cl)cc1Nc1nc(C(F)(F)F)ccc1C(=O)N/N=C/c1c(Cl)cccc1Cl

>  <Class assignment>
inactive

$$$$
>  <Compound>
O=[N+]([O-])C1C(c2ccccc2)C12c1ccccc1-c1ccccc12 (stereo not given)

>  <Class assignment>
inactive

$$$$
>  <Compound>
CCOC(=O)c1ccc(NC(=O)N2CC(C)OC(C)C2)cc1 (stereo not given)

>  <Class assignment>
inactive

$$$$
>  <Compound>
CC(=O)O[C@H]1CC[C@@]2(C)C(=CC[C@@H]3[C@@H]2CC[C@]2(C)C(c4cccnc4)=CC[C@@H]32)C1

>  <Class assignment>
inactive

$$$$
>  <Compound>
O=C(NNc1nc(Cl)nc(N2CCN(C(c3ccccc3)c3ccccc3)CC2)n1)c1ccccc1

>  <Class assignment>
inactive

$$$$

###

tested on: MDA-MB-231 breast; assay: NCI tumour cell line growth inhibition, 48 h; in the data active = GI50 below about 0.43 µM; inactive = the rest
Possible outcomes: TRUE for active, FALSE for inactive

>  <Compound>
CN1CC[C@@H](c2c(O)cc(O)c3c(=O)cc(-c4ccccc4Cl)oc23)[C@@H](O)C1

>  <Class assignment>
TRUE

$$$$
>  <Compound>
COc1ccc(C(=O)/C(Br)=C/C(=O)O)cc1

>  <Class assignment>
FALSE

$$$$
>  <Compound>
O=C(NNc1nc(Cl)nc(N2CCN(C(c3ccccc3)c3ccccc3)CC2)n1)c1ccccc1

>  <Class assignment>
FALSE

$$$$
>  <Compound>
COc1cc(C2C=C(c3cccc(NC(C)=O)c3)Nc3ncnn32)cc(OC)c1OC (centres undefined)

>  <Class assignment>
FALSE

$$$$
>  <Compound>
CC(=O)Nc1ccc2c(c1)c(C1=C(c3cn(C)c4ccccc34)C(=O)NC1=O)cn2C

>  <Class assignment>
FALSE

$$$$
>  <Compound>
O=C(CN1CCN(c2ncccn2)CC1)Nc1ccc(Cl)cc1C(=O)c1ccccc1Cl

>  <Class assignment>
FALSE

$$$$
>  <Compound>
CNC(=O)c1cc(OC2CCC(NC(=O)Nc3ccc(Cl)c(C(F)(F)F)c3)CC2)ccn1 (centres undefined)

>  <Class assignment>
FALSE

$$$$
>  <Compound>
C=C1C(=O)O[C@H]2[C@H]1CC/C(Cn1cc(CNC(=O)Cc3cn(C(=O)c4ccc(Cl)cc4)c4ccc(OC)cc34)nn1)=C\CC[C@@]1(C)O[C@@H]21

>  <Class assignment>
FALSE

$$$$
>  <Compound>
O=C(CCCCCCSc1nc(-c2ccccc2)cc(-c2ccc(Cl)cc2)n1)NO

>  <Class assignment>
FALSE

$$$$

###

test system: HCT-116 colon; assay: NCI tumour cell line growth inhibition, 48 h

>  <Compound>
CC1=C(C(=O)Nc2ccccc2C)C(c2ccccc2)C(C(=O)Nc2ccccc2C)=C(C)N1

>  <TGI>
> 100 µM

$$$$
>  <Compound>
Cc1ccc(S(=O)(=O)N/C(=C\C=C\c2ccccc2)C(=O)C(C)(C)C)cc1

>  <TGI>
> 100 µM

$$$$
>  <Compound>
CC(=O)Nc1ccc2c(c1)c(C1=C(c3cn(C)c4ccccc34)C(=O)NC1=O)cn2C

>  <TGI>
> 25 µM

$$$$
>  <Compound>
COC1=CC(=O)c2ccccc2C1(CCC=C(C)C)C1=NC(C)(C)CO1 (centres undefined)

>  <TGI>
> 100 µM

$$$$

###

tested on: HL-60(TB) leukemia; assay: NCI tumour cell line growth inhibition, 48 h

>  <Molecule>
CCC[CH2][Sn-]([CH2]CCC)([CH2]CCC)[O]c1cc(Cl)c(Cl)cc1Cl

>  <TGI>
0.167 µM

$$$$
>  <Molecule>
Cc1ccc(OCC(=O)N2N=C(c3ccccc3)CC2(O)c2ccccc2)cc1 (stereo unspecified)

>  <TGI>
> 100 µM

$$$$
>  <Molecule>
Nc1ccn(CCOC(=O)c2ccccc2)c(=O)n1

>  <TGI>
> 100 µM

$$$$
>  <Molecule>
O=C(Nc1ccc(N2CCNCC2)cc1)c1[nH]ncc1Nc1ncnc2sc3c(c12)CCC3

>  <TGI>
3.28 µM

$$$$
>  <Molecule>
COc1cccc(C2CC(C)(N3CCCC3)Oc3cc4c(cc32)OCO4)c1O (stereo unspecified)

>  <TGI>
> 54.2 µM

$$$$
>  <Molecule>
Cc1ccc(C)n2c1nc1ccc3ccccc3c12

>  <TGI>
> 100 µM

$$$$

###

tested on: SK-MEL-2 melanoma; test: NCI tumour cell line growth inhibition, 48 h

>  <Molecule>
c1ccc2c(-c3cnc(-c4c[nH]c5ccccc45)cn3)c[nH]c2c1

>  <TGI>
> 100 µM

$$$$
>  <Molecule>
COc1ccc2c(c1)O[C@@H]1C(O)Oc3cc(OC)c(OC)cc3[C@]1(O)C2=O (stereo partly drawn)

>  <TGI>
> 100 µM

$$$$
>  <Molecule>
COc1cc2c(cc1OC)C(=O)/C(=C/c1cccc(OCC(=O)c3ccccc3)c1)C2

>  <TGI>
> 100 µM

$$$$

###

test system: NCI-H226 lung; test: NCI tumour cell line growth inhibition, 48 h
Where a SMILES comes first, the peptide text is derived from it. [ ]: non-standard residue; d: D form. The star is where a group is joined. ξ: configuration not given here. ξF = NC(Cc1ccccc1)C(=O)O; Cbz = O=C(OCc1ccccc1)*; Aib = CC(C)(N)C(=O)O
Measured TGI accompanies every entry in the list below.

>  <Compound>
COc1ccc(-c2nn3ncccc3c2-c2ccnc(Nc3ccc(Cl)c(C(F)(F)F)c3)n2)cc1

>  <TGI>
> 25 µM

$$$$
>  <Compound>
CCOC(=O)/C(O)=C1\C(=O)N(C)C(=O)C1c1ccc(OC)c(OC)c1 (stereo not given)

>  <TGI>
> 100 µM

$$$$
>  <Compound>
CC(=O)O[C@H]1CC[C@@]2(C)C(=CC[C@@H]3[C@@H]2CC[C@]2(C)C(c4cccnc4)=CC[C@@H]32)C1

>  <TGI>
> 100 µM

$$$$
>  <Compound>
CCCCOC(=O)C(=O)C(CCC(=O)c1ccc(C)cc1)C(=O)C=C(C)C (stereo not given)

>  <TGI>
> 100 µM

$$$$
>  <Compound>
Cc1cn(C2CC(n3cc(Cn4cc(F)c(=O)[nH]c4=O)nn3)C(CO)O2)c(=O)[nH]c1=O (stereo not given)

>  <TGI>
> 100 µM

$$$$
>  <Compound>
COc1cc(O)c([C@@H]2C[C@H](CCc3ccc(O)cc3)O[C@H](c3ccc(O)cc3)C2)c(O)c1C(=O)/C=C/c1ccc(O)cc1

>  <TGI>
21.5 µM

$$$$
>  <Compound>
O=c1oc2cc(OS(=O)(=O)c3ccc(F)cc3)ccc2c2c1CCCCC2

>  <TGI>
> 100 µM

$$$$
>  <Compound>
COc1ccc2c(c1)O[C@@H]1C(O)Oc3cc(OC)c(OC)cc3[C@]1(O)C2=O (stereo not given in full)

>  <TGI>
83.9 µM

$$$$
>  <Compound>
N#CC1=C2Sc3ccccc3N2[C@H](c2ccccc2)[C@H]2COC(=O)[C@@H]12

>  <TGI>
> 100 µM

$$$$
>  <Compound>
Cc1ncc(CN=Cc2ccc(Cl)cc2)c(N)n1

>  <TGI>
> 100 µM

$$$$
>  <Compound>
Cc1ccc(C(=O)N(C2CCCCC2)C2CCCCC2)cc1N=NN(C)C

>  <TGI>
39.5 µM

$$$$
>  <Compound>
CC(C)(NC(=O)OCc1ccccc1)C(=O)NC(Cc1ccccc1)C(=O)O (stereo not given) (Cbz-[Aib]-[ξF]-OH)

>  <TGI>
> 100 µM

$$$$
>  <Compound>
CCc1cccc(C(C)C)c1NC(=O)C(=O)C(Cc1nc2ccccc2[nH]c1=O)C(=O)OC (stereo not given)

>  <TGI>
> 100 µM

$$$$
>  <Compound>
O=C(Nc1ccccc1)O/N=C(/CBr)c1ccccc1

>  <TGI>
60.8 µM

$$$$
>  <Compound>
CC(C)C[C@H](NC(=O)[C@H](Cc1cccc2ccccc12)NC(=O)N1CCOCC1)B(O)O

>  <TGI>
0.00049 µM

$$$$
>  <Compound>
CC(C)Oc1c(-c2c(OC(C)C)c(=O)c2=O)c(=O)c1=O

>  <TGI>
> 100 µM

$$$$
>  <Compound>
CC1OC(OCC2OC(Oc3c(-c4ccc(O)cc4)oc4cc(O)cc(O)c4c3=O)C(OC3OCC(O)(CO)C3O)C(O)C2O)C(O)C(O)C1O (stereo not given)

>  <TGI>
> 100 µM

$$$$
>  <Compound>
CCOc1cc2ncc(C#N)c(Nc3ccc(OCc4cccc(F)c4)c(Cl)c3)c2cc1NC(=O)CC1CCSS1 (stereo not given)

>  <TGI>
> 25 µM

$$$$
>  <Compound>
c1ccc(CNc2c3c(nc4ccccc24)CCC3)cc1

>  <TGI>
35.9 µM

$$$$
>  <Compound>
COC(=O)Cc1ccc2c(c1)Sc1ccc(CC(=O)OC)cc1N2C

>  <TGI>
> 93.5 µM

$$$$
